Biological target: PSMA (Homo sapiens, UniProt Q04609)
Construct: endogenous in cells; host or cells: LNCaP cells (CLS: 300265)
Sequence (Q04609 whole entry): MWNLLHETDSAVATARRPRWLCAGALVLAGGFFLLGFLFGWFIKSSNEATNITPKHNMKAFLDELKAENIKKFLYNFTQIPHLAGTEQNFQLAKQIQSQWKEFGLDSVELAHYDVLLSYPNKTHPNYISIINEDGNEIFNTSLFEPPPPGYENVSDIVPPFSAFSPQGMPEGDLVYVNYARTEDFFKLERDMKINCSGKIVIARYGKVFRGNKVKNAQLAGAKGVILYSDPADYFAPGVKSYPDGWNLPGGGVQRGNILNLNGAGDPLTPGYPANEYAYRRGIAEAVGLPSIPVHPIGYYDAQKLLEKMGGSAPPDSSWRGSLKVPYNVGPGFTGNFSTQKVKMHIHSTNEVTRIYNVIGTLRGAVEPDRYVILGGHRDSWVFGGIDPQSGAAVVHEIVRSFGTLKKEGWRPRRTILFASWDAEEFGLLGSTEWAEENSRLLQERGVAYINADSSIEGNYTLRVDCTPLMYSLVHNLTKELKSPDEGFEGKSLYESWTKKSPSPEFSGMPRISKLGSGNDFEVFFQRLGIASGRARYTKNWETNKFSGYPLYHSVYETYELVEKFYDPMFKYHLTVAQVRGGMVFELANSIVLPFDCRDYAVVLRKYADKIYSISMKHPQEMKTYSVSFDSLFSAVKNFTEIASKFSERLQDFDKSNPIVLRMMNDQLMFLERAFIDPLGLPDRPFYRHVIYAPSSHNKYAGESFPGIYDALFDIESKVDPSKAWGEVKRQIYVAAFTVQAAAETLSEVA
Assay: competitive binding assay on LNCaP cells (radioligand 125I-IBA)
Details: read-out: IC50 (affinity to PSMA)
pIC50: −log10 of the molar value.
Here the recorded pIC50 is given for each entry.
property.name: pIC50

CC(=O)N[C@@H](Cc1ccc(O)cc1)C(=O)N[C@@H](Cc1ccc(O)c(C)c1)C(=O)N[C@@H](CCCCNC(=O)CCCCCCC(=O)NCCCC[C@H](NC(=O)N[C@@H](CCC(=O)O)C(=O)O)C(=O)O)C(=O)O [PSMA inhibitor 9, Ac-Y(3-CH3-Y)K(Sub-KuE)]: 8.14
CC(=O)N[C@@H](Cc1ccc(O)cc1)C(=O)N[C@@H](Cc1c[nH]c2ccccc12)C(=O)N[C@@H](CCCCNC(=O)CCCCCCC(=O)NCCCC[C@H](NC(=O)N[C@@H](CCC(=O)O)C(=O)O)C(=O)O)C(=O)O [PSMA inhibitor 2, Ac-YWK(Sub-KuE)]: 8.17
CC(=O)N[C@@H](Cc1ccc(O)cc1)C(=O)N[C@@H](Cc1cc(I)c(O)c(I)c1)C(=O)N[C@@H](CCCCNC(=O)CCCCCCC(=O)NCCCC[C@H](NC(=O)N[C@@H](CCC(=O)O)C(=O)O)C(=O)O)C(=O)O [PSMA inhibitor 8, Ac-Y(3,5-di-I-Y)K(Sub-KuE)]: 8.42
CC(=O)N[C@@H](Cc1ccc(O)cc1)C(=O)N[C@@H](Cc1ccccc1)C(=O)N[C@@H](CCCCNC(=O)CCCCCCC(=O)NCCCC[C@H](NC(=O)N[C@@H](CCC(=O)O)C(=O)O)C(=O)O)C(=O)O [PSMA inhibitor 1, Ac-YFK(Sub-KuE)]: 7.82

---

List of Log K HSA values.
Molecular target: human serum albumin (Homo sapiens, UniProt P02768)
Construct: purchased Daicel Chemical Industries, purchased from Chiral Technologies Europe (Illkirch, France) Chiralpak HSA (5 μm, 50 × 3 mm)
Sequence (P02768 25-609): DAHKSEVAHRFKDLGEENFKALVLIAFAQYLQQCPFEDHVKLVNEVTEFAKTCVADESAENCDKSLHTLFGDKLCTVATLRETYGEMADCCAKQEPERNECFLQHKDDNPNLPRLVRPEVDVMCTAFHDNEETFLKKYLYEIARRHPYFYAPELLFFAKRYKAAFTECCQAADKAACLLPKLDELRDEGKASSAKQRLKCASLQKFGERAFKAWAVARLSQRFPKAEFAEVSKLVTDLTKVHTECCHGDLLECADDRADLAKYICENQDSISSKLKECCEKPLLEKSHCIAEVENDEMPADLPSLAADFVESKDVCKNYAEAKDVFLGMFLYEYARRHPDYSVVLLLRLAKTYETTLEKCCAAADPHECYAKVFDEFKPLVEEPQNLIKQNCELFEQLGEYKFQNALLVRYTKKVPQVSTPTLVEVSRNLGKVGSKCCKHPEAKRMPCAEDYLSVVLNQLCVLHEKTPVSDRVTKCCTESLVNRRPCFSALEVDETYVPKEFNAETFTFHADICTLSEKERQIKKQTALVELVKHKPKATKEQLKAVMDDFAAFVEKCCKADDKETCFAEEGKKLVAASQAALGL
Experiment: human serum albumin binding, HPLC on Chiralpak HSA column
Assay type: in vitro ADME
Details: calibration reference substances; logarithmic K from the literature HSA binding; ref [3, 4]
property.name: Log K HSA

COc1ccc(Cl)cc1C(=O)NCCc1ccc(S(=O)(=O)NC(=O)NC2CCCCC2)cc1 [Glibenclamide]: 1.69
CCCN(CCC)S(=O)(=O)c1ccc(C(=O)O)cc1: 1.20
Oc1ccccc1: -0.59
Nc1ccccc1: -0.79

---

Biological target: PSMA (Homo sapiens)
Construct: endogenous in cells; host or cells: LNCaP cells (CLS: 300265)
Experiment: competitive binding assay on LNCaP cells (radioligand 125I-IBA)
Conditions: read-out: IC50 (affinity to PSMA)
Listed below: IC50 values for each entry.
property.name: IC50 (nM)

CC(=O)N[C@@H](Cc1ccc(O)cc1)C(=O)N[C@@H](Cc1cccc2ccccc12)C(=O)N[C@@H](CCCCNC(=O)CCCCCCC(=O)NCCCC[C@H](NC(=O)N[C@@H](CCC(=O)O)C(=O)O)C(=O)O)C(=O)O [PSMA inhibitor 5, Ac-Y-1-Nal-K(Sub-KuE)]: 4.3
CC(=O)N[C@@H](Cc1ccc(O)cc1)C(=O)N[C@@H](Cc1ccc2ccccc2c1)C(=O)N[C@@H](CCCCNC(=O)CCCCCCC(=O)NCCCC[C@H](NC(=O)N[C@@H](CCC(=O)O)C(=O)O)C(=O)O)C(=O)O [PSMA inhibitor 6, Ac-Y-2-Nal-K(Sub-KuE)]: 3.9
CC(=O)N[C@@H](Cc1ccc(O)cc1)C(=O)N[C@@H](Cc1ccc(-c2ccccc2)cc1)C(=O)N[C@@H](CCCCNC(=O)CCCCCCC(=O)NCCCC[C@H](NC(=O)N[C@@H](CCC(=O)O)C(=O)O)C(=O)O)C(=O)O [PSMA inhibitor 4, Ac-Y-(Biphenyl-A)K(Sub-KuE)]: 139
CC(=O)N[C@@H](Cc1ccc(O)cc1)C(=O)N[C@@H](Cc1ccc([N+](=O)[O-])cc1)C(=O)N[C@@H](CCCCNC(=O)CCCCCCC(=O)NCCCC[C@H](NC(=O)N[C@@H](CCC(=O)O)C(=O)O)C(=O)O)C(=O)O [PSMA inhibitor 7, Ac-Y(4-NO2-F)K(Sub-KuE)]: 7.4
